Provenance of the data: the supplement of paper PMC10567573

B1: ZNF449 (parent)
chain: HKKKSPGEKPHRCPQCGKCFARKS

- Variants of: B1
- assay_explanation: protein stability index of a GFP-peptide fusion (GPS, HEK-293T) (PSI 1-6); higher = more stable;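 note: lentivirally expressed fusions sorted by FACS into six bins by GFP to DsRed ratio, PSI derived from sequencing read proportions per bin multiplied by bin number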
- experimental_parameters: c terminus: a fixed tail appended
measure_name: protein stability index

INSERT INTO measurements (mutation_string, measure_name, value_measured) VALUES
  ('S5Y', 'protein stability index', 3.55),
  ('F20E', 'protein stability index', 4.11),
  ('P10N', 'protein stability index', 3.3),
  ('P10R', 'protein stability index', 3.31),
  ('P6Q', 'protein stability index', 3.57),
  ('S24W', 'protein stability index', 2),
  ('S5A', 'protein stability index', 4.1),
  ('G7Q', 'protein stability index', 3.2),
  ('G7A', 'protein stability index', 3.46),
  ('G17F', 'protein stability index', 3.79),
  ('G7F', 'protein stability index', 3.53),
  ('K23Y', 'protein stability index', 3.12),
  ('P10F', 'protein stability index', 3.15),
  ('F20P', 'protein stability index', 1.49),
  ('H11L', 'protein stability index', 3.19),
  ('F20L', 'protein stability index', 4.18),
  ('A21T', 'protein stability index', 3.69),
  ('S5I', 'protein stability index', 3.26),
  ('P14V', 'protein stability index', 3.75),
  ('K23F', 'protein stability index', 1.75),
  ('H11D', 'protein stability index', 3.21),
  ('C13R', 'protein stability index', 3.91);
